Assign pIC50 to each entry below.
System: 786-0 complex spheroids with HUVEC/MSC, growth % test/control
Test: Anticancer human tumor 786-0 cell line growth inhibition [AhR];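 further: compound exposure lasted seven days before the read-out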
Details: curve of compound
pIC50: −log10 of the molar value.

Q: What reported pIC50 corresponds to "O=C(c1cc(Cc2n[nH]c(=O)c3ccccc23)ccc1F)N1CCN(C(=O)C2CC2)CC1" on 786-0 complex spheroids with HUVEC/MSC, growth % test/control?
Result: < 5.00

Q: What reported pIC50 corresponds to "CCN(c1cc(-c2ccc(CN3CCOCC3)cc2)cc(C(=O)NCc2c(C)cc(C)[nH]c2=O)c1C)C1CCOCC1" on 786-0 complex spheroids with HUVEC/MSC, growth % test/control?
Result: < 5.52

Q: What reported pIC50 corresponds to Nc1ccn(C2OC(CO)C(O)C2(F)F)c(=O)n1 (centres undefined) on 786-0 complex spheroids with HUVEC/MSC, growth % test/control?
Result: > 7.50

Q: What reported pIC50 corresponds to Cn1ncnc1C1c2n[nH]c(=O)c3cc(F)cc(c23)NC1c1ccc(F)cc1 (centres undefined) on 786-0 complex spheroids with HUVEC/MSC, growth % test/control?
Result: < 7.00

Q: What reported pIC50 corresponds to "CC(C)c1c(-c2ccccc2)nc2c(C#N)c[nH]n2c1=O" on 786-0 complex spheroids with HUVEC/MSC, growth % test/control?
Result: < 5.00

Q: What reported pIC50 corresponds to "COc1ccc([C@@H](O)c2cc(-c3ncnc4cc(N5CCOCC5)ccc34)c(F)cc2Cl)nn1" on 786-0 complex spheroids with HUVEC/MSC, growth % test/control?
Result: < 5.00

Q: What reported pIC50 corresponds to Nc1ncn(C2CC(O)C(CO)O2)c(=O)n1 (centres undefined) on 786-0 complex spheroids with HUVEC/MSC, growth % test/control?
Result: < 6.00

Q: What reported pIC50 corresponds to Nc1ncn(C2CC(O)C(CO)S2)c(=O)n1 (centres undefined) on 786-0 complex spheroids with HUVEC/MSC, growth % test/control?
Result: < 6.52

Q: What reported pIC50 corresponds to "CC1(C)CCC(CN2CCN(c3ccc(C(=O)NS(=O)(=O)c4ccc(NCC5CCOCC5)c([N+](=O)[O-])c4)c(Oc4cnc5[nH]ccc5c4)c3)CC2)=C(c2ccc(Cl)cc2)C1" on 786-0 complex spheroids with HUVEC/MSC, growth % test/control?
Result: < 5.00

* * *

Tested on: 786-0 complex spheroids with HUVEC/MSC, growth % test/control
Assay: Anticancer human tumor 786-0 cell line growth inhibition [AhR];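 further: compound exposure lasted seven days before the read-out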
Settings: curve of first compound; second compound 1 µM
Assign IC50 to each entry below.
Write the answer as a number in nM, unit excluded.

Q: Please look up its IC50: COc1cccc2c1C(=O)c1c(O)c3c(c(O)c1C2=O)CC(O)(C(=O)CO)CC3OC1CC(N)C(O)C(C)O1 (stereo unspecified) + Cc1ccccc1N=Nc1ccc(NC(=O)c2ccnn2C)c(C)c1
Result: 132

Q: Please look up its IC50: O=C(C=Cn1cnc(-c2cc(C(F)(F)F)cc(C(F)(F)F)c2)n1)NNc1cnccn1 + Cc1ccccc1N=Nc1ccc(NC(=O)c2ccnn2C)c(C)c1
Result: 470

Q: Please look up its IC50: COc1cccc2c1C(=O)c1c(O)c3c(c(O)c1C2=O)CC(O)(C(=O)CO)CC3OC1CC(N)C(O)C(C)O1 (stereo unspecified) + CC(CO)NC(=O)c1cc(-c2ccc(Cl)cc2)nn(-c2cnn(C)c2)c1=O
Result: 45.5

Q: Please look up its IC50: CC1COCCN1c1cc(C2(S(C)(=N)=O)CC2)nc(-c2ccnc3[nH]ccc23)n1 (stereo unspecified) + Cc1cncc(-c2nc(NCCc3c[nH]c4ccccc34)c3ncn(C(C)C)c3n2)c1
Result: 4840

Q: Please look up its IC50: CC1COCCN1c1cc(C2(S(C)(=N)=O)CC2)nc(-c2ccnc3[nH]ccc23)n1 (stereo unspecified) + CC(CO)NC(=O)c1cc(-c2ccc(Cl)cc2)nn(-c2cnn(C)c2)c1=O
Result: 2640

* * *

System: 786-0 complex spheroids with HUVEC/MSC, growth % test/control
Assay: Anticancer human tumor 786-0 cell line growth inhibition [AhR];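 further: compound exposure lasted seven days before the read-out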
Settings: curve of first compound; second compound 10 µM
Experimental Readout: IC50

Q: Please look up its IC50: Nc1ccn(C2OC(CO)C(O)C2(F)F)c(=O)n1 (stereo unspecified) + CC(CO)NC(=O)c1cc(-c2ccc(Cl)cc2)nn(-c2cnn(C)c2)c1=O
Result: < 31.6 nM

Q: Please look up its IC50: CC1COCCN1c1cc(-c2ccnn2C)c2ccnc(-c3ccn[nH]3)c2n1 (stereo unspecified) + CC(CO)NC(=O)c1cc(-c2ccc(Cl)cc2)nn(-c2cnn(C)c2)c1=O
Result: 51.1 nM

Q: Please look up its IC50: CCN(c1cc(-c2ccc(CN3CCOCC3)cc2)cc(C(=O)NCc2c(C)cc(C)[nH]c2=O)c1C)C1CCOCC1 + CC(CO)NC(=O)c1cc(-c2ccc(Cl)cc2)nn(-c2cnn(C)c2)c1=O
Result: > 3000 nM

Q: Please look up its IC50: CC1COCCN1c1cc(-c2ccnn2C)c2ccnc(-c3ccn[nH]3)c2n1 (stereo unspecified) + Cc1cncc(-c2nc(NCCc3c[nH]c4ccccc34)c3ncn(C(C)C)c3n2)c1
Result: < 3.16 nM

Q: Please look up its IC50: Cn1ncnc1C1c2n[nH]c(=O)c3cc(F)cc(c23)NC1c1ccc(F)cc1 (stereo unspecified) + CC(CO)NC(=O)c1cc(-c2ccc(Cl)cc2)nn(-c2cnn(C)c2)c1=O
Result: > 100 nM

Q: Please look up its IC50: O=C(C=Cc1cccc(S(=O)(=O)Nc2ccccc2)c1)NO + Cc1cncc(-c2nc(NCCc3c[nH]c4ccccc34)c3ncn(C(C)C)c3n2)c1
Result: < 31.6 nM

* * *

Test system: 786-0 complex spheroids with HUVEC/MSC, growth % test/control
Assay: Anticancer human tumor 786-0 cell line growth inhibition [AhR];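 further: compound exposure lasted seven days before the read-out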
Conditions: second compound 1 µM; first compound 0.01 µM; stronger effect = lower value
Experimental Readout: viability, T/C (%)
Write the answer as a number in %, unit excluded.

Q: Please look up its viability, T/C: CC[C@@]1(O)C(=O)OCc2c1cc1n(c2=O)Cc2cc3c(CN(C)C)c(O)ccc3nc2-1 + Cc1ccccc1N=Nc1ccc(NC(=O)c2ccnn2C)c(C)c1
Result: 103

Q: Please look up its viability, T/C: CC1COCCN1c1cc(-c2ccnn2C)c2ccnc(-c3ccn[nH]3)c2n1 (stereo not drawn) + CC(CO)NC(=O)c1cc(-c2ccc(Cl)cc2)nn(-c2cnn(C)c2)c1=O
Result: 110

Q: Please look up its viability, T/C: CC[C@@]1(O)C(=O)OCc2c1cc1n(c2=O)Cc2cc3c(CN(C)C)c(O)ccc3nc2-1 + CC(CO)NC(=O)c1cc(-c2ccc(Cl)cc2)nn(-c2cnn(C)c2)c1=O
Result: 104

* * *

Assign viability, T/C to each entry below.
Test system: 786-0 complex spheroids with HUVEC/MSC, growth % test/control
Assay: Anticancer human tumor 786-0 cell line growth inhibition [AhR];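 further: compound exposure lasted seven days before the read-out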
Details: second compound 10 µM; first compound 0.3 µM; stronger effect = lower value
Write the answer as a number in %, unit excluded.

Q: What reported viability, T/C corresponds to CCc1c2c(nc3ccc(O)cc13)-c1cc3c(c(=O)n1C2)COC(=O)[C@]3(O)CC + CC(CO)NC(=O)c1cc(-c2ccc(Cl)cc2)nn(-c2cnn(C)c2)c1=O on 786-0 complex spheroids with HUVEC/MSC, growth % test/control?
Result: 2.66

Q: What reported viability, T/C corresponds to CC(C)CC(NC(=O)C(Cc1ccccc1)NC(=O)c1cnccn1)B(O)O (stereo not drawn) + CC(CO)NC(=O)c1cc(-c2ccc(Cl)cc2)nn(-c2cnn(C)c2)c1=O on 786-0 complex spheroids with HUVEC/MSC, growth % test/control?
Result: 0.37

Q: What reported viability, T/C corresponds to CC(C)CC(NC(=O)C(Cc1ccccc1)NC(=O)c1cnccn1)B(O)O (stereo not drawn) + Cc1ccccc1N=Nc1ccc(NC(=O)c2ccnn2C)c(C)c1 on 786-0 complex spheroids with HUVEC/MSC, growth % test/control?
Result: 1.25

* * *

Test system: 786-0 complex spheroids with HUVEC/MSC, growth % test/control
Assay: Anticancer human tumor 786-0 cell line growth inhibition [AhR];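 further: compound exposure lasted seven days before the read-out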
Details: curve of first compound; second compound 10 µM
Assign IC50 to each entry below.
Write the answer as a number in µM, unit excluded.

Q: Please look up its IC50: COc1cccc2c1C(=O)c1c(O)c3c(c(O)c1C2=O)CC(O)(C(=O)CO)CC3OC1CC(N)C(O)C(C)O1 (stereo unspecified) + Cc1ccccc1N=Nc1ccc(NC(=O)c2ccnn2C)c(C)c1
Result: 0.0765

Q: Please look up its IC50: COc1cc(Nc2ncc3c(n2)-c2ccc(Cl)cc2C(c2c(F)cccc2OC)=NC3)ccc1C(=O)O + Cc1ccccc1N=Nc1ccc(NC(=O)c2ccnn2C)c(C)c1
Result: 5.41

Q: Please look up its IC50: COc1ccc([C@@H](O)c2cc(-c3ncnc4cc(N5CCOCC5)ccc34)c(F)cc2Cl)nn1 + Cc1ccccc1N=Nc1ccc(NC(=O)c2ccnn2C)c(C)c1
Result: 9.48

Q: Please look up its IC50: CC1COCCN1c1cc(C2(S(C)(=N)=O)CC2)nc(-c2ccnc3[nH]ccc23)n1 (stereo unspecified) + Cc1ccccc1N=Nc1ccc(NC(=O)c2ccnn2C)c(C)c1
Result: 5.28
